Tested on: Vero cells
Experiment: General/basal cytotoxicity, resazurin assay
readout_kind: Toxicity to mammalian cells, class in words

Query :: Value lookup for Toxicity to mammalian cells, class in words; key = O=[N+]([O-])c1ccc(/C=N/N=C/c2ccc(OCc3ccccc3)cc2)s1 [7b]
Result :: low toxicity

Query :: Need Toxicity to mammalian cells, class in words of O=[N+]([O-])c1ccc(/C=N/N=C/c2ccc(F)cc2)s1 [2b] , thanks.
Result :: low toxicity

Query :: Record request: Toxicity to mammalian cells, class in words value, item O=[N+]([O-])c1ccc(/C=N/N=C/c2ccccc2)s1 [1b]
Result :: moderate toxicity

Query :: Suppose we examine the molecule Cc1ccc(/C=N/N=C/c2ccc([N+](=O)[O-])o2)cc1 [5a] ; what Toxicity to mammalian cells, class in words value has been reported?
Result :: low toxicity

Query :: Name the recorded Toxicity to mammalian cells, class in words for O=[N+]([O-])c1ccc(/C=N/N=C/c2ccc(OCc3ccccc3)cc2)o1 [7a] .
Result :: low toxicity

Shift focus to the following entry.
Query :: For the molecule shown here, O=[N+]([O-])c1ccc(/C=N/N=C/c2ccc(O)cc2)s1 [8b] , give the reported Toxicity to mammalian cells, class in words.
Result :: moderate toxicity
